Experiment: qHTS assay for identifying genotoxic compounds that show differential cytotoxicity against isogenic chicken DT40 cell lines with known DNA damage response pathways - wild type cell line (AID 743012); further: nearly all actives have a fitted effect of over 60% in size
Conditions: DT40 wild type chicken cells viability, CellTiter-Glo, 40 h; series mostly up to 68.4 µM
Records with an inconclusive call do not appear. Active and inactive are the calls of the source. The call rests on the fitted dose curve; in most records, active means well fitted cell-killing curve with a large enough effect in the repeat runs; inconclusive means weak or mixed curves, or effect the other way; inactive means no such curve, though single readings can be large or run the other way.
Outcomes you can answer with include only these: active, inactive

These solved cases illustrate the format of a correct answer.
- Molecule: "Cc1cc(C(=O)NNCc2ccccc2)no1"
  Group Label: "inactive"
- Molecule: "OC[C@H]1O[C@@H](n2cnc3c2NC=NC[C@H]3O)C[C@@H]1O"
  Group Label: "inactive"
- Molecule: "c1cnc2cc3c(cc2n1)[C@@H]1CNC[C@H]3C1"
  Group Label: "inactive"
- Molecule: "C[C@H]1C[C@@H]2[C@H]([C@@H](O)C[C@@]3(C)[C@H]2CC[C@]3(O)C(=O)COC(=O)CCC(=O)O)[C@@]2(C)C=CC(=O)C=C12"
  Group Label: "inactive"

How did this test come out for C=C[C@]1(C)C[C@@H](OC(=O)CSCCN(CC)CC)[C@]2(C)[C@H](C)CC[C@]3(CCC(=O)[C@H]32)[C@@H](C)[C@@H]1O ?
active

How did this test come out for CC[C@@]1(O)C[C@H](O[C@H]2C[C@H](N(C)C)[C@H](O[C@H]3C[C@H](O)[C@H](O[C@H]4CCC(=O)[C@H](C)O4)[C@H](C)O3)[C@H](C)O2)c2c(cc3c(c2O)C(=O)c2c(O)cccc2C3=O)[C@H]1C(=O)OC ?
active

How did this test come out for OCC(S)CS (centres undefined) ?
active

How did this test come out for S=C1SCN(Cc2ccccc2)CN1Cc1ccccc1 ?
active

How did this test come out for CCOc1ccc(N=C(C)Nc2ccc(OCC)cc2)cc1 ?
active
